Hi there, I'd appreciate the recorded melting point for every entry that follows.

Reference set, count: 5
{"columns": ["Compound", "melting point"],
 "data": [
  ["CC1(C)CC2(CC(C)(C)c3ccc(Oc4cccc(N)c4)cc32)c2cc(Oc3cccc(N)c3)ccc21", "206 °C"],
  ["CCOC(=O)c1c(CN2CCCC2=O)nc2sc3c(c2c1-c1ccc2c(c1)OCO2)CCN(C(=O)c1ccccc1)C3", "270 to 271 °C"],
  ["O=C(NCc1ccccn1)Nc1cc(N2CC(COc3ccccc3)OC2=O)ccn1 (configuration not stated)", "155 to 156 °C"],
  ["COC(=O)N=C(NC(=O)Nc1ccc(Cl)c(C(=O)OC(C)C)c1)SC", "93 to 94 °C"],
  ["CCOC(=O)c1cc(=O)c2c(C(C)C)cccc2[nH]1", "176 to 178 °C"]
]}

For the 4 compounds below, give their melting point values.
1. CCCOc1ccc(F)c2c(=O)c(-c3ccc(C(=O)N4CCOCC4)cc3)c[nH]c12
2. CC12CCC3C(CC(O)C4CC(=O)CCC43C)C1CCC2O (configuration not stated)
3. C[Si](C)(C)c1cc(Cl)sc1C(=O)NCCO
4. Cc1ccc(O)c2[nH]c(Cc3cccnc3)nc12

result:
1: 234 to 236 °C; 2: 195 to 205 °C; 3: 110 to 114 °C; 4: 264 to 268 °C

// each compound listed below needs its melting point
1. COC(=S)c1nc(Br)nc(C)c1Cl
2. Nc1ccc(-c2nc3ccccc3o2)cc1I
3. COC(=O)C[C@H]1C[C@H](C=Cc2c(-c3ccc(F)cc3)c(-c3ccc(F)cc3)c(C(=O)OCc3ccccc3)n2C(C)C)OC(C)(C)O1

result:
["105 to 106 °C", "188 to 191 °C", "125 to 127 °C"]

Go through the items and report each one's melting point.
1. CN1C(=O)CSC1c1cccnc1 (configuration not stated)
2. Nc1cc([N+](=O)[O-])cnc1Nc1ccccc1F
3. Nc1c(-c2ccccc2)oc2c(CO)cccc2c1=O
4. CCCC(=O)Nc1ccc(N2CCC(NC[C@H](O)COc3cccc4[nH]c(=O)[nH]c34)CC2)cc1

result:
1: 96.5 to 97.5 °C; 2: 171 to 172 °C; 3: 192 °C; 4: 190 to 201 °C

The following compounds each have a reported value; give each one's melting point.
1. COc1cc(OC)cc(S(=O)(=O)c2ccc([N+](=O)[O-])cc2)c1
2. CSc1ccc(C(=O)Nc2cccnc2C(=O)Nc2ccc(Cl)cn2)c(OCCN)c1
3. COc1cc(C(C)C)c2c(c1)S(=O)(=O)N(COC(=O)c1cccs1)C2=O
4. Cc1ccccc1OS(=O)(=O)c1ccc(N2CCCNC2=O)cc1

result:
150 to 152 °C
158 to 159 °C
139 to 141 °C
161 to 163 °C

Each of the following entries comes with a recorded value; kindly state melting point for each.
1. Cc1ncc(C(=O)O)cn1
2. CN(C)C=Nc1c(F)ccc(F)c1C#N
3. CCCCCCCCCCCCCCOc1ccc(NC(=O)c2cccc(CBr)c2)cc1
4. Clc1ccc(C=NCCN=Cc2ccc(Cl)nc2)cn1
5. CCCN(CC(=O)Nc1cnc(C)nc1N(CC)CC)c1ccccc1
6. CNS(=O)(=O)c1ccc(C)cc1C(=O)O
7. CCOP(=O)(OCC)c1cnc2ccc(C(F)(F)F)cc2c1
8. COc1ccc(NC(=O)c2c(Cl)cccc2Cl)c2nccc(NN)c12

result:
["166 to 170 °C", "56 to 60 °C", "140 to 142 °C", "170 °C", "96.6 to 98.1 °C", "140 to 141 °C", "69 °C", "> 250 °C"]

Fill in melting point for each of the 4 compounds listed.
1. COc1cccc(OC(=O)/C=C/c2ccc(C(C)(C)C)cc2)c1
2. CCc1ccc(OC)c(-c2cc(C(C)(C)C)c(O)c(C(C)(C)C)c2)c1
3. COc1ccc(CN2C(=O)[C@@H](N3C(=O)c4ccccc4C3=O)[C@H]2/C=C/c2ccccc2)c(OC)c1 (relative stereo)
4. CC(=O)Nc1ccc(OCC(O)CCCl)cc1 (configuration not stated)

result:
83 °C
78 to 79 °C
173 to 177 °C
124 to 127 °C
